Before we begin, note that these IC50 values for Caspase-8 (Homo sapiens) originate from several publications.
MEASUREMENT TYPE: IC50

* CN(C)C(=O)c1csc(C2COc3ccccc3O2)n1 (stereo not given) | > 200 µM
* O=C1C(=O)N(Cc2ccc(F)cc2)c2ccc(S(=O)(=O)N3CC[C@H]3COc3ccccc3)cc21 | > 50 µM
* COC[C@@H]1CCCN1S(=O)(=O)c1ccc2c(c1)C(=O)C(=O)N2Cc1ccc(O)cc1 | > 500 µM
* O=C1C(=O)N(Cc2cn(CCF)nn2)c2ccc(S(=O)(=O)N3CCC[C@H]3COc3ccccc3)cc21 | > 50 µM
* COc1cccc(C(=O)NNC(=O)C2(C(=O)N[C@H]3CC(=O)OC3O)CC2)c1 (stereo not given in full) | ≥ 10 µM
